Readings of melting point for the listed compounds

compound=C[C@@H]1SC(N)=N[C@H]1Cc1ccccc1 attribute_measured="melting point" result="89 °C"
compound=Nc1cc(Br)ccc1-c1ccc(Br)cc1N attribute_measured="melting point" result="118 to 119 °C"
compound=COC(=O)c1nn(-c2cccc(C(F)(F)F)c2)cc(OC)c1=O attribute_measured="melting point" result="169 to 170 °C"
compound=CC(=O)NCCC1=CCc2ccc3nc(C)oc3c21 attribute_measured="melting point" result="154 to 156 °C"
compound=COc1ccc(-c2nc(SCCCCCc3nc4ccccc4[nH]3)[nH]c2-c2ccc(OC)cc2)cc1 attribute_measured="melting point" result="85 to 86 °C"
compound=O=S(=O)(NCCCCOc1ccc(-n2ccnc2)cc1)c1ccc(I)cc1 attribute_measured="melting point" result="150 to 152 °C"
compound="CNC(=O)NC(=O)C(CC1CCC(O)C1)c1ccc(Cl)c(Cl)c1 (stereo unspecified)" attribute_measured="melting point" result="82 to 84 °C"
compound=O=C(O)c1ccc(N(CCCc2ccc(Cl)cc2)CCCc2ccc(Cl)cc2)cc1 attribute_measured="melting point" result="128 to 131 °C"
compound=COC(=O)c1c(Br)ccc2nn(C)cc12 attribute_measured="melting point" result="103 to 104 °C"
compound=N#Cc1ccc2c(c1)OC(c1ccccc1)(c1ccccc1)O2 attribute_measured="melting point" result="106 to 107 °C"

Next:
Answer with the recorded melting point of CCCCCCCCCCCCCCCCC(Br)CO (stereo unspecified) only.
39 to 39.5 °C
